# system.tested: Glutamate NMDA receptor
# protocol.notes: Ability to displace [3H]CPP from NMDA receptor in rat brain membrane
# Assay type: cell membranes
Recorded pIC50, one value per entry.
Would you please state pIC50, meaning minus log10 of the concentration in mol/L, as a bare number?

Here are 8 compounds together with their reported answers.
compound | pIC50
C/C(=C\C(N)C(=O)O)CP(=O)(O)O (stereo not drawn) | 7.46
NC(C[S+]([O-])CP(=O)(O)O)C(=O)O (stereo not drawn) | 6.85
NC(C(=O)O)c1cc(=O)[nH]o1 (stereo not drawn) | 5.00
NC(C(=O)O)c1ccc(CP(=O)(O)O)s1 (stereo not drawn) | 6.18
O=C(O)C1CN(C2CCC(P(=O)(O)O)C2)CCN1 (stereo not drawn) | 5.80
O=C(O)C1NCCc2ccc(P(=O)(O)O)cc21 (stereo not drawn) | 5.57
O=C(O)C1Cc2c(CCP(=O)(O)O)cccc2CN1 (stereo not drawn) | 6.57
O=C(O)C1CC(CP(=O)(O)O)C2CCCCC2N1 (stereo not drawn) | 5.04

Challenge: Supply pIC50 measured with Glutamate NMDA receptor for "O=C(O)[C@@H]1C[C@H](CP(=O)(O)O)CCN1" .
Response given: 7.27

Challenge: Supply pIC50 measured with Glutamate NMDA receptor for NC(C#CP(=O)(O)O)C(=O)O (stereo not drawn) .
Response given: 6.35

Challenge: Supply pIC50 measured with Glutamate NMDA receptor for NC(Cc1cccc(C(Br)P(=O)(O)O)c1)C(=O)O (stereo not drawn) .
Response given: 4.30

Challenge: Supply pIC50 measured with Glutamate NMDA receptor for O=C(O)C1CC(CCP(=O)(O)O)C2CCCCC2N1 (stereo not drawn) .
Response given: 4.00

Challenge: Supply pIC50 measured with Glutamate NMDA receptor for NC(Cc1cccc(CP(=O)(O)O)c1)C(=O)O (stereo not drawn) .
Response given: 5.55

Challenge: Supply pIC50 measured with Glutamate NMDA receptor for NC(C(=O)O)c1ccc(CP(=O)(O)O)cc1 (stereo not drawn) .
Response given: 6.00

Challenge: Supply pIC50 measured with Glutamate NMDA receptor for O=C(O)[C@H]1CN(C(c2ccccc2)P(=O)(O)O)CCN1 (stereo partly drawn) .
Response given: 5.24

Challenge: Supply pIC50 measured with Glutamate NMDA receptor for "O=C(O)CCCN1CCN[C@@H](C(=O)O)C1" .
Response given: 6.10

---

# system.tested: Glutamate NMDA receptor (Rattus norvegicus) (UniProt P35439+Q00959+Q00960+Q00961+Q62645+Q8VHN2+Q9R1M7)
# protocol.notes: Ability to displace [3H]CPP from NMDA receptor in rat brain membrane was evaluated at 10e-4 M
# Assay type: cell membranes
endpoint.name: inhibition (%)
// note: answer is a bare numeric in %

compound | unit.descriptor | inhibition
O=C(O)C1Cc2ccc(CCP(=O)(O)O)cc2CN1 (stereo not given) | % | 0
O=C(O)C1Cc2ccc(CP(=O)(O)O)cc2CN1 (stereo not given) | % | 0
NC(Cc1ccccc1P(=O)(O)O)C(=O)O (stereo not given) | % | 3
O=C(O)C1Cc2ccc(P(=O)(O)O)cc2CN1 (stereo not given) | % | 0

Alright, here's another compound for you.
Challenge: Give recorded inhibition. NC(C(=O)O)c1cccc(CCP(=O)(O)O)c1 (stereo not given)
Response given: 35

---

# system.tested: Glutamate NMDA receptor
# protocol.notes: Displacement of [3H]CPP from N-methyl-D-aspartate glutamate receptor in rat brain membrane
# Type: cell membranes
// NB: equality with 6 µM counts as not met; only IC50 strictly below is met

The examples below pair each entry with its known result.
compound | assigned.category
NC(C(=O)O)c1ccc(P(=O)(O)O)cc1 (stereo not given) | not met
N[C@H](C(=O)O)[C@@H]1C[C@@H]1C(=O)O | met
CC([C@H]1CCN[C@H](C(=O)O)C1)P(=O)(O)O (stereo not given in full) | met
NC(C(=O)O)c1cccc(C(=O)O)c1 (stereo not given) | not met
Cc1c(CP(=O)(O)O)ccnc1C(=O)O | not met
NC(Cc1cccc(CP(=O)(O)O)c1)C(=O)O (stereo not given) | met
N[C@@]1(C(=O)O)CC[C@H](C(=O)O)C1 | not met
NC(C(=O)O)c1cc(CP(=O)(O)O)cc(-c2ccccc2)c1 (stereo not given) | not met
O=C(O)C1CN(Cc2ccccc2CP(=O)(O)O)CCN1 (stereo not given) | not met
O=C(O)[C@H]1CN(C(c2ccccc2)P(=O)(O)O)CCN1 (stereo not given in full) | not met

Challenge: Does the reported IC50 of O=C(O)C1NCCC2CCC(P(=O)(O)O)CC21 (stereo not given) stay below 6 µM?
Response given: met

Challenge: Does the reported IC50 of NC(CCCCCP(=O)(O)O)C(=O)O (stereo not given) stay below 6 µM?
Response given: met

Challenge: Does the reported IC50 of "N[C@@H](CC(=O)O)C(=O)O" stay below 6 µM?
Response given: not met

Challenge: Does the reported IC50 of O=C(O)C1NCCc2ccc(CP(=O)(O)O)cc21 (stereo not given) stay below 6 µM?
Response given: not met

Challenge: Does the reported IC50 of NC(CC(=O)NCP(=O)(O)O)C(=O)O (stereo not given) stay below 6 µM?
Response given: met
